Data provenance: patent US20090124633A1

Study system: Tie-2 (Homo sapiens, UniProt Q02763)
Construct: The catalytic sections of the corresponding tyrosine kinases are preferably expressed as GST fusion proteins; GST
Sequence (Q02763 824-1096 limits assumed): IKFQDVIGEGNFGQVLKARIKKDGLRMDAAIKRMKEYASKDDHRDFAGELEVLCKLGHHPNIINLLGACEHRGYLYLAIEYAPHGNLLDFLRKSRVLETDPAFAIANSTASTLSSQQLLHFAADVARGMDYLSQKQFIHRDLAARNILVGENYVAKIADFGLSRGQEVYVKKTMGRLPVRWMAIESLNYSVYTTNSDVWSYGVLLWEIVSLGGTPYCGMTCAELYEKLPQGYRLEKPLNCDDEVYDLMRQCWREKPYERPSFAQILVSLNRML
Assay name: flashplate kinase assay, phosphorylation of poly-Glu-Tyr (4:1) by Tie-2
Test parameters: read-out: TIE2 [IC50]
Measured property: IC50 (nM)

Worked cases, answers included:
1. CNC(=O)c1cc(Oc2ccc(NC(=O)Nc3cc(C(F)(F)F)ccc3-n3cncn3)cc2)cc[n+]1[O-] : 52
2. O=C(Nc1ccc(Oc2cc[n+]([O-])cc2)cc1)Nc1cc(C(F)(F)F)ccc1-n1cncn1 : 740

[P] CNC(=O)c1cc(Oc2ccc(NC(=O)Nc3cc(C(F)(F)F)ccc3-n3ccnn3)cc2)cc[n+]1[O-]
[Q] CNC(=O)c1cc(Oc2ccc(NC(=O)Nc3cc(C(F)(F)F)ccc3-n3ccnc3)cc2)cc[n+]1[O-]
[Q] Hi there, can you help? I need to know whether P or Q has lower measured IC50. Mark your selection by writing its label.
[A] P
